Cited source: PubChem BioAssay (NCI)

# Tested on: CAKI-1 renal
# Experiment description: NCI tumour cell line growth inhibition, 48 h; in the data active means GI50 below about 0.43 µM; inactive means the rest
Outcomes: active, inactive

>  <Compound>
CNC(C)C(=O)N[C@H](C(=O)N1CCC[C@@H]1CN(CCc1ccccc1)C(=O)C(F)(F)F)[C@H](C)OCC#CC#CCO[C@H](C)[C@H](NC(=O)[C@H](C)NC)C(=O)N1CCC[C@H]1CN(CCc1ccccc1)C(=O)C(F)(F)F (stereo partly specified)

>  <Class assignment>
inactive

$$$$
>  <Compound>
COc1ccc(/C=C/c2cc(N3CCOCC3)c3cc(F)c(F)cc3n2)cc1OC

>  <Class assignment>
active

$$$$
>  <Compound>
CC[C@@H](C(=O)[C@@H](C)[C@@H](O)[C@H](C)[C@@H]1O[C@@H]([C@@H](CC)C(=O)O)CC[C@@H]1C)[C@H]1OC2(C=C[C@@H](O)[C@]3(CC[C@@](C)([C@H]4CC[C@](O)(CC)[C@H](C)O4)O3)O2)[C@H](C)C[C@@H]1C (stereo partly specified)

>  <Class assignment>
inactive

$$$$
>  <Compound>
COc1cc([C@@H]2c3cc4c(cc3[C@@H](O[C@@H]3O[C@@H]5CO[C@@H](c6cccs6)O[C@H]5[C@H](O)[C@H]3O)[C@H]3COC(=O)[C@H]23)OCO4)cc(OC)c1O

>  <Class assignment>
inactive

$$$$
>  <Compound>
CN(C)CCN=Cc1c2ccccc2c(=O)n2c1oc1ccccc12

>  <Class assignment>
inactive

$$$$
>  <Compound>
COc1cccc(C2NC(=S)NC(C)=C2C(=O)Nc2ccc(F)c(Cl)c2)c1 (stereo unspecified)

>  <Class assignment>
inactive

$$$$
